B1: tRNA (parent)
chain: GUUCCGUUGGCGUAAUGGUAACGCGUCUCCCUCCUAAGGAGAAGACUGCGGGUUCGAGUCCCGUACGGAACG

Variants of: B1
Assay: yeast fitness relative to wild type (ratio to wild type); higher = fitter; tRNA-Arg(CCU), competitive growth, 37 C, YPD
Variants at the floor of the assay were thinned out.
OBSERVATION TYPE: yeast fitness

Observe how each entry below is paired with its result.
VARIANT KEY	yeast fitness
G12A G38A G48A	≤ 0.5
U32G C33G A70G	≤ 0.5
G12C G23C G50A C55A	≤ 0.5
G18A G41C A42G U54A	≤ 0.5
C11U A21U C27A C34A A36U U47C	≤ 0.5
C11G U16G U35A G41C	≤ 0.5

Which yeast fitness is listed for C11U A14G U35C C60G ?
≤ 0.5

Which yeast fitness is listed for C24G C29A A43U A57G G68C ?
≤ 0.5

Which yeast fitness is listed for G10C C34G G67A ?
≤ 0.5

Which yeast fitness is listed for G18U C30U C49G ?
≤ 0.5

Which yeast fitness is listed for U13A A36G A43U G51A ?
≤ 0.5

Which yeast fitness is listed for G9A A14C G38C G68A ?
≤ 0.5

Which yeast fitness is listed for C4G G25A C49U G50U G63C ?
≤ 0.5

Which yeast fitness is listed for U2C C61U G68A ?
≤ 0.5

Which yeast fitness is listed for C22U G58C A65C ?
≤ 0.5

Which yeast fitness is listed for A15C C31G G58A U59A A65U ?
≤ 0.5

Which yeast fitness is listed for U13C A15U G23A C33A A42G G56A ?
≤ 0.5

Which yeast fitness is listed for A15C A21U C24U ?
≤ 0.5
